Measured values drawn from the supplement of paper PMC9233669 for this set.

# key: entry, value: self-aminoacylation
Test system: biotinyl-Val-oxazolone
Protocol Summary: self-aminoacylation, catalytic enhancement (BVO) (fold over background); higher = more active; k-Seq, kA / k0A0; sequences stand for … in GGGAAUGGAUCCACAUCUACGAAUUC…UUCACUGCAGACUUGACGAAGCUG
Variants at the floor of the assay were thinned out.

A selection of reference data follows.
| Primary Sequence | self-aminoacylation |
| --- | --- |
| AUUGCCCUGGUCAUCUAGUGA [Fam2.1 aminoacylation ribozyme variant] | 4.24 |
| CUACUUCAAACACUCGUUCUG [Fam1A.1 aminoacylation ribozyme variant] | 0.635 |
| AGUACCCGGGUCAUCGAGUGA [Fam2.1 aminoacylation ribozyme variant] | 3.98 |

# input for lookup
So the reported self-aminoacylation for CCACAUUUCAAGCAAUCGGUG [Fam1B.1 aminoacylation ribozyme variant] , on biotinyl-Val-oxazolone, turned out to be 5.89
